Tested on: recombinant, N-terminally GST-tagged ATAD2 bromodomain amino acids 981-1108 (Homo sapiens)
Construct: ATAD2 bromodomain amino acids 981-1108
Sequence (Q6PL18 981-1108): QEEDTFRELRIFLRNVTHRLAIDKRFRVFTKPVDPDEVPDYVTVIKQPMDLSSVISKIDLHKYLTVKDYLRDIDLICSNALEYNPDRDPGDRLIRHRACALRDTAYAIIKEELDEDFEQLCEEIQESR
Experimental protocol: TR-FRET assay: disruption of the interaction between ATAD2 and acetylated Histone H4 (Ac-H4) peptide
Test settings: inhibition of ATAD2/Ac-H4 complex formation; 10 nM ATAD2, 50 nM Ac-H4 peptide
Assign labels as follows, please: met for IC50 below 2000 nM; not met for IC50 equal to or exceeding 2000 nM.

Exam item: Given the entry Cc1ccc([C@@H](C)NCc2ccc(-c3ccc(Cl)c(C(=O)N[C@@H](CO)Cc4ccncc4)c3)o2)cc1 , would its reported IC50 be below 2000 nM?
Marked response: not met

Exam item: Given the entry COc1cc(Cl)c(C(=O)N[C@@H](CN)Cc2ccc(C#N)cc2)cc1-c1ccc(CN[C@H](C)c2ccc(C)cc2)o1 , would its reported IC50 be below 2000 nM?
Marked response: met

Exam item: Given the entry Cc1ccc([C@@H](C)NCc2ccc(-c3ccc(Cl)c(C(=O)N[C@@H](CO)Cc4ccc(C#N)cc4)c3)o2)cc1 , would its reported IC50 be below 2000 nM?
Marked response: met

Exam item: Given the entry Cc1ccc([C@@H](C)NCc2ccc(-c3ccc(Cl)c(C(=O)N[C@H](Cc4ccc(C#N)cc4)CN4CCCC4)c3)o2)cc1 , would its reported IC50 be below 2000 nM?
Marked response: met

Exam item: Given the entry COc1cc(C#N)ccc1C[C@H](CO)NC(=O)c1cc(-c2ccc(CN[C@H](C)c3ccc(C)cc3)o2)ccc1Cl , would its reported IC50 be below 2000 nM?
Marked response: met

----------
I'd appreciate it if you could supply pIC50 values for the items below.
Tested on: recombinant, N-terminally GST-tagged ATAD2 bromodomain amino acids 981-1108 (Homo sapiens)
Construct: ATAD2 bromodomain amino acids 981-1108
Experimental protocol: TR-FRET assay: disruption of the interaction between ATAD2 and acetylated Histone H4 (Ac-H4) peptide
Test settings: inhibition of ATAD2/Ac-H4 complex formation; 10 nM ATAD2, 50 nM Ac-H4 peptide
pIC50 (log units): -log10 of the concentration in mol/L.

Exam item: Query: pIC50; subject: Cc1ccc([C@@H](C)NCc2ccc(-c3cc(C(=O)N[C@@H](CO)Cc4ccc(C#N)cc4)c(Cl)cc3Cl)o2)cc1
Marked response: 5.91

Exam item: Query: pIC50; subject: Cc1ccc([C@@H](C)NCc2ccc(-c3ccc(Cl)c(C(=O)N[C@@H](CNCC(C)C)Cc4ccc(C#N)cc4)c3)o2)cc1
Marked response: 6.10

Exam item: Query: pIC50; subject: COC[C@@H](Cc1ccc(C#N)cc1)NC(=O)c1cc(-c2ccc(CN[C@H](C)c3ccc(C)cc3)o2)ccc1Cl
Marked response: 6.05

Exam item: Query: pIC50; subject: Cc1ccc(C(C)NCc2ccc(-c3ccc(Cl)c(C(=O)N[C@@H](Cc4ccc(C#N)cc4)c4ncc[nH]4)c3)o2)cc1 (stereo in doubt)
Marked response: 6.19

Exam item: Query: pIC50; subject: Cc1ccc([C@@H](C)NCc2ccc(-c3ccc(Cl)c(C(=O)N[C@@H](CC(=O)NCCO)Cc4ccc(C#N)cc4)c3)o2)cc1
Marked response: 6.08

Exam item: Query: pIC50; subject: Cc1ccc([C@@H](C)NCc2ccc(-c3ccc(Cl)c(C(=O)N[C@@H](CNC(=O)C4CCNCC4)Cc4ccc(C#N)cc4)c3)o2)cc1
Marked response: 6.29

Exam item: Query: pIC50; subject: Cc1ccc([C@@H](C)NCc2ccc(-c3ccc(Cl)c(C(=O)N[C@H](Cc4ccc(C#N)cc4)C(=O)NC4CCN(C)CC4)c3)o2)cc1
Marked response: 6.60

Exam item: Query: pIC50; subject: COc1cc(Cl)c(C(=O)N[C@@H](CN[C@H]2CC[C@@H](N)CC2)Cc2ccc(C#N)cc2)cc1-c1ccc(CN[C@H](C)c2ccc(C)cc2)o1 [Example 87]
Marked response: 6.67

Exam item: Query: pIC50; subject: Cc1ccc([C@@H](C)NCc2ccc(-c3ccc(Cl)c(C(=O)N[C@@H](CCN[C@@H]4CCN(C)C4)Cc4ccc(C#N)cc4)c3)o2)cc1
Marked response: 6.37

Exam item: Query: pIC50; subject: Cc1ccc([C@@H](C)NCc2ccc(-c3ccc(Cl)c(C(=O)N[C@@H](CNCCC4CCNCC4)Cc4ccc(C#N)cc4)c3)o2)cc1
Marked response: 7.07

Exam item: Query: pIC50; subject: Cc1ccc([C@@H](C)NCc2ccc(-c3ccc(Cl)c(C(=O)N[C@@H](CNCC4CCNCC4)Cc4ccc(C#N)cc4)c3)o2)cc1
Marked response: 6.95

Exam item: Query: pIC50; subject: CC(=O)NC[C@@H](Cc1ccc(C#N)cc1)NC(=O)c1cc(-c2ccc(CN[C@H](C)c3ccc(C)cc3)o2)ccc1Cl
Marked response: 5.77

Exam item: Query: pIC50; subject: C[C@@H](NCc1ccc(-c2ccc(Cl)c(C(=O)N[C@@H](CN)Cc3ccc(C#N)cc3)c2)o1)c1ccc(C(F)(F)F)cc1
Marked response: 6.25

Exam item: Query: pIC50; subject: COc1cc(Cl)c(C(=O)N[C@@H](CN)Cc2ccc(C#N)c(C)c2)cc1-c1ccc(CN[C@H](C)c2ccc(C)cc2)o1
Marked response: 6.57

Exam item: Query: pIC50; subject: Cc1ccc([C@@H](C)NCc2ccc(-c3ccc(Cl)c(C(=O)N[C@H](Cc4ccc(C#N)cc4)[C@@H](O)CC(C)C)c3)o2)cc1
Marked response: 5.96

The reported numbers originate from patent US10654818B2.
